- TEST SUMMARY: Drug metabolism in mouse liver microsomes incubated for 15 mins
- Format: ADME
- ASSAY CONTEXT: read-out: Drug metabolism
READOUT TYPE: metabolised at 0.25 h
Provide the measurement as a number trailed by its unit.

Recorded metabolised at 0.25 h, per entry:
- LINE NOTATION: "CCCCCOc1ccc(NS(=O)(=O)c2ccc3c(c2)CN(C(=O)Nc2ccc(C(C)(C)C)cc2)C3)c(F)c1"
  metabolised at 0.25 h: "12.6%"
- LINE NOTATION: "COc1cc(F)ccc1NS(=O)(=O)c1ccc2c(c1)CN(C(=O)Nc1ccc(C(C)(C)C)cc1)C2"
  metabolised at 0.25 h: "60.6%"

-- ask So what does the record say about metabolised at 0.25 h for `CC(C)(C)c1ccc(NC(=O)N2Cc3ccc(S(=O)(=O)Nc4ccc(F)cc4)cc3C2)cc1` ?
-- reply 70.9%

-- ask So what does the record say about metabolised at 0.25 h for `COc1ccc(NS(=O)(=O)c2ccc3c(c2)CN(C(=O)Nc2ccc(C(C)(C)C)cc2)C3)c(F)c1` ?
-- reply 51.1%

-- ask So what does the record say about metabolised at 0.25 h for `CC(C)(C)c1ccc(CCN2CCc3cc(S(=O)(=O)Nc4ccc(F)cc4)ccc3C2)cc1` ?
-- reply 47.8%

----------
- TEST SUMMARY: Cmax in mouse at 100 mg/kg, po
- Format: ADME, organism-based
- Design: dose 100 mg/kg, route oral
- ASSAY CONTEXT: in vivo
READOUT TYPE: Cmax (ng/mL)
Use ng/mL as the unit, but write only the number.

- LINE NOTATION: "COc1cc(F)ccc1NS(=O)(=O)c1ccc2c(c1)CN(C(=O)Nc1ccc(C(C)(C)C)cc1)C2"
  UNIT ABBREV: "ng/mL"
  Cmax: 94.3

Next compound, please.
-- ask So what does the record say about Cmax for `CC(C)(C)c1ccc(CCN2CCc3cc(S(=O)(=O)Nc4ccc(F)cc4)ccc3C2)cc1` ?
-- reply 1200

----------
- TEST SUMMARY: AUC (0 to 4 hrs) in mouse at 100 mg/kg, po
- Format: ADME, organism-based
- Parameters: dose 100 mg/kg, time < 4 hr, route oral
- ASSAY CONTEXT: in vivo
Each item that follows carries a reported AUC(0-t) at 4 h.
Provide the measurement as a number trailed by its unit.

- LINE NOTATION: "COc1cc(F)ccc1NS(=O)(=O)c1ccc2c(c1)CN(C(=O)Nc1ccc(C(C)(C)C)cc1)C2"
  RESULT: "134 ng·h/mL"

-- ask So what does the record say about AUC(0-t) at 4 h for `CC(C)(C)c1ccc(CCN2CCc3cc(S(=O)(=O)Nc4ccc(F)cc4)ccc3C2)cc1` ?
-- reply 1810 ng·h/mL

----------
- TEST SUMMARY: Solubility in water
- Type: physicochemical
Each item that follows carries a reported solubility.
Use µg/mL as the unit, but write only the number.

Recorded solubility, per entry:
- LINE NOTATION: "COc1cc(F)ccc1NS(=O)(=O)c1ccc2c(c1)CN(C(=O)Nc1ccc(C(C)(C)C)cc1)C2"
  UNIT ABBREV: "µg/mL"
  solubility: 0.607
- LINE NOTATION: "CC(C)(C)c1ccc(CCN2Cc3ccc(S(=O)(=O)Nc4ccc(F)cc4)cc3C2)cc1"
  UNIT ABBREV: "µg/mL"
  solubility: 270

Next compound, please.
-- ask So what does the record say about solubility for `CC(C)(C)c1ccc(CCN2CCc3cc(S(=O)(=O)Nc4ccc(F)cc4)ccc3C2)cc1` ?
-- reply 641

----------
- TEST SUMMARY: Solubility in FeSSIF solution at pH 5.0
- Assay type: physicochemical
Each item that follows carries a reported solubility.
Provide the measurement as a number trailed by its unit.

- LINE NOTATION: "CC(C)(C)c1ccc(CCN2CCc3cc(S(=O)(=O)Nc4ccc(F)cc4)ccc3C2)cc1"
  RESULT: "385 µg/mL"
- LINE NOTATION: "COc1cc(F)ccc1NS(=O)(=O)c1ccc2c(c1)CN(C(=O)Nc1ccc(C(C)(C)C)cc1)C2"
  RESULT: "28.3 µg/mL"
- LINE NOTATION: "CCCCCOc1ccc(NS(=O)(=O)c2ccc3c(c2)CN(C(=O)Nc2ccc(C(C)(C)C)cc2)C3)c(F)c1"
  RESULT: "10.2 µg/mL"

-- ask So what does the record say about solubility for `COc1ccc(NS(=O)(=O)c2ccc3c(c2)CN(C(=O)Nc2ccc(C(C)(C)C)cc2)C3)c(F)c1` ?
-- reply 0.783 µg/mL

----------
- TEST SUMMARY: Solubility in water
- Assay type: physicochemical
Each item that follows carries a reported solubility.

Recorded solubility, per entry:
- LINE NOTATION: "CC(C)(C)c1ccc(NC(=O)N2Cc3ccc(S(=O)(=O)Nc4ccc(F)cc4)cc3C2)cc1"
  solubility: "< 0.07 µg/mL"
- LINE NOTATION: "CC(C)(C)c1ccc(CC(=O)N2Cc3ccc(S(=O)(=O)Nc4ccc(F)cc4)cc3C2)cc1"
  solubility: "< 0.11 µg/mL"
- LINE NOTATION: "CCCCCOc1ccc(NS(=O)(=O)c2ccc3c(c2)CN(C(=O)Nc2ccc(C(C)(C)C)cc2)C3)c(F)c1"
  solubility: "< 0.06 µg/mL"

-- ask So what does the record say about solubility for `COc1ccc(NS(=O)(=O)c2ccc3c(c2)CN(C(=O)Nc2ccc(C(C)(C)C)cc2)C3)c(F)c1` ?
-- reply < 0.06 µg/mL

Where do these numbers come from? They come from ChEMBL document CHEMBL3603768.
